TARGET OF ASSAY: glucosylceramide synthase (GCS) (Homo sapiens (Human), UniProt Q16739)
Sequence (Q16739 whole entry, looked up): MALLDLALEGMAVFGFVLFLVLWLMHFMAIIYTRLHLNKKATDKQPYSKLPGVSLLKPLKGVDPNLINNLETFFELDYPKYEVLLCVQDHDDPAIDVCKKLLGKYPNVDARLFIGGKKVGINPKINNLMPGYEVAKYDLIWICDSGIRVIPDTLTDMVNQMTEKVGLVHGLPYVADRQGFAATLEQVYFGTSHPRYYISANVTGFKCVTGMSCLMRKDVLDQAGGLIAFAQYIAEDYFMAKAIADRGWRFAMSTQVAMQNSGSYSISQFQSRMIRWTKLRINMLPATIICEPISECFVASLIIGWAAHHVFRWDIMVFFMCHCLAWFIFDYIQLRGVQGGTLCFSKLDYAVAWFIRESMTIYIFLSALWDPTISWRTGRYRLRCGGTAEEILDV
ASSAY NAME: Evaluation of inhibitory activities against GCS (enzyme reaction with A549 cell lysate, NBD C6-ceramide, HPLC fluorescence)
CONDITION CONTEXT: GCS activity in A549 cell lysate, 37° C. for 90 minutes
pIC50: −log10 of the molar value.
Attribute: pIC50
QUANTITY: pIC50

[[record]]
compound = "Cc1ccc(-c2ccc3c(c2)C(NC(=O)O[C@@H]2CN4CCC2CC4)C2(CC3)CC2)cc1 (some centres unmarked) [Example 183]"
quantity = "pIC50"
endpoint_result = 7.89

[[record]]
compound = "CC1(C)CCc2cc(-c3ccccc3F)ccc2C1NC(=O)O[C@@H]1CN2CCC1CC2 (some centres unmarked) [Example 94]"
quantity = "pIC50"
endpoint_result = 9.01

[[record]]
compound = "O=C(NC1CCCc2cc(-c3ccc(OC(F)F)cc3)ccc21)O[C@@H]1CN2CCC1CC2 (some centres unmarked) [Example 13]"
quantity = "pIC50"
endpoint_result = 7.63

[[record]]
compound = "COc1ccc(-c2ccc3c(c2)CCC(C)(C)C3NC(=O)O[C@@H]2CN3CCC2CC3)c(OC)c1 (some centres unmarked) [Example 134]"
quantity = "pIC50"
endpoint_result = 8.53

[[record]]
compound = "O=C(NC1CCCc2cc(-c3cc(Cl)cc(Cl)c3)ccc21)O[C@@H]1CN2CCC1CC2 (some centres unmarked) [Example 24]"
quantity = "pIC50"
endpoint_result = 8.04

